The values you see were collected from BindingDB's records for doi:10.1021/jm9013482.

- Target: Delta-type opioid receptor (Homo sapiens)
- Sequence (P41143 whole entry): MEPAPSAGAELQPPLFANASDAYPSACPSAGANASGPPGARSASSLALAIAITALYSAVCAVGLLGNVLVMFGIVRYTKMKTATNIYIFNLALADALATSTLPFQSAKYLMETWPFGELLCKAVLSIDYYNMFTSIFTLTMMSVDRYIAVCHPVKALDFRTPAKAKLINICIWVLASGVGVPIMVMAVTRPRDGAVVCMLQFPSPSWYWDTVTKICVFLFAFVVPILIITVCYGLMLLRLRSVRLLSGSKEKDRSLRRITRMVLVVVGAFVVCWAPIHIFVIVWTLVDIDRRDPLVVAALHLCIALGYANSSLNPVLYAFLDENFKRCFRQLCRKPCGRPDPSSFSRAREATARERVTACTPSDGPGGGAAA
- Assay info: Displacement of [3H]naltrindole from human delta opioid receptor expressed in CHO cells
Observation type: pKi
Reminder that pKi is minus the log10 of a molar concentration.

Find the measured pKi: item `O=C(CCCCC(=O)NCc1cc2c(cc1O)[C@@]13CCCC[C@H]1[C@@H](C2)N(CC1CCC1)CC3)NCc1cc2c(cc1O)[C@@]13CCCC[C@H]1[C@@H](C2)N(CC1CCC1)CC3` , target or system Delta-type opioid receptor (Homo sapiens).
6.20
